From: patent US20240174680A1

Target: CDK2/Cyclin E1 (Homo sapiens, UniProt P24941)
Test: CDK2/Cyclin E1 Caliper LabChip EZ Reader mobility shift assay
Type: biochemical
Parameters: purchased Eurofins 14-475
Details: read-out: Caliper Assay (CDK2/CCNE1): IC50
Listed compounds paired with reported IC50

Solved cases (5 shown):
{"Compound": "CNC(=O)[C@@H](NC(=O)[C@H]1CN(C(=O)c2cnn(Cc3ccccc3)c2)CC12CN(C(=O)C1(F)CC1)C2)[C@@H](C)OCc1ccccc1 [I-71B]", "IC50": "> 10 µM"}
{"Compound": "CNC(=O)[C@@H](NC(=O)[C@@H]1CN(C(=O)c2scnc2C2CCCC2)CC12CN(C(=O)[C@H]1CC1(C)C)C2)[C@@H](C)OCC1CCCCC1 [I-224B]", "IC50": "> 10 µM"}
{"Compound": "CO[C@H]1COCC[C@@H]1NC(=O)[C@@H]1CN(C(=O)c2cnn(Cc3ccccc3)c2)CC12CN(C(=O)[C@H]1CC1(C)C)C2 [I-148A]", "IC50": "> 10 µM"}
{"Compound": "CC1(C)C[C@@H]1C(=O)N1CC2(CN(C(=O)c3cnn(Cc4ccccc4)c3)C[C@@H]2C(=O)N[C@H]2CCc3cc(Cl)ccc32)C1 [I-120B]", "IC50": "1 to 10 µM"}
{"Compound": "CNC(=O)[C@@H](NC(=O)[C@@H]1CN(C(=O)c2sc(Cl)nc2Cl)CC12CN(C(=O)[C@H]1CC1(C)C)C2)[C@@H](C)OCC1CCCCC1 [I-232A]", "IC50": "0.01 to 0.1 µM"}

// switching to the query compound
Recorded result, C[C@@H](O)[C@H](NC(=O)[C@@H]1CN(C(=O)c2cnn(C)c2)CC12CN(C(=O)[C@H]1CC1(C)C)C2)C(=O)N1CCCCC1 , IC50: > 10 µM
